Data origin, for the record: patent US9096596B2

target: rat P2X7 (Rattus norvegicus (Rat)); assay: Ca2+ flux (FLIPR) in 1321N1 cells expressing recombinant rat P2X7 channel; conditions: 250 μM BzATP, Calcium-4 dye
Sequence (Q64663 whole entry): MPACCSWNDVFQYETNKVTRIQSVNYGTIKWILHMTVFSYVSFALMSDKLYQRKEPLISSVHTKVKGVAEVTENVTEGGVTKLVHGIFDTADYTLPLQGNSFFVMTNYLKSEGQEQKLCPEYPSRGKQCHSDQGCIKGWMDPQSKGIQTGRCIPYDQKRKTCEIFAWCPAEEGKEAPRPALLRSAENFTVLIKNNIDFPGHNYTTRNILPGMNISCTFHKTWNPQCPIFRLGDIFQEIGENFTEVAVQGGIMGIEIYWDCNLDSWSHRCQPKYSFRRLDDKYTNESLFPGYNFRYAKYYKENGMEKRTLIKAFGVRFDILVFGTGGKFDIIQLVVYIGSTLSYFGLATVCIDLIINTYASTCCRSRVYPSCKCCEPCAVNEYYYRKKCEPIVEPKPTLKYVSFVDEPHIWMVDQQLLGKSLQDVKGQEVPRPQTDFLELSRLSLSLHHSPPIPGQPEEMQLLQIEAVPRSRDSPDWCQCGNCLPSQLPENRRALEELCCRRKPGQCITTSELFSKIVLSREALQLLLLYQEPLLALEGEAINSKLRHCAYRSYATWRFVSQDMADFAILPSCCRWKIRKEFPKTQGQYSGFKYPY
Please respond with reported pIC50 for every item in the list.
Remember the convention: pIC50 equals -log10 of concentration in molar.

What pIC50 value was documented for this compound, CC1c2ncnc(-c3ccn[nH]3)c2CCN1C(=O)c1ccc(F)c(Cl)c1Cl (stereo not drawn) [Example 118] ? 7.68

What pIC50 value was documented for this compound, Cc1nc2c(c(-c3ccn[nH]3)n1)C[C@H](C)N(C(=O)c1cccc(Cl)c1Cl)C2 (single isomer, unassigned) [Example 69] ? 6.03

What pIC50 value was documented for this compound, Cc1nc2c(c(-c3[nH]ncc3F)n1)CCN(C(=O)c1cccc(C(F)(F)F)c1Cl)C2 [Example 35] ? 6.57

What pIC50 value was documented for this compound, O=C(c1cccc(Cl)c1Cl)N1CCc2c(ncnc2-c2cn[nH]c2)C1 [Example 4] ? 4.90
